test: Recirculating in situ rat intestinal perfusion (jejunum) in presence and absence of excipients; conditions: Sprague-Dawley, other: closed-loop recirculating in situ jejunal perfusion, pH 6.8, Effective permeability coefficient (Peff), SLS 0.01 mg/ml, mean ± SEM, n = 4

| molecule | Papp at 90 min (×10⁻⁶ cm/s) |
| --- | --- |
| CC(C)(C)NCC(O)COc1cccc2c1CC(O)C(O)C2 (stereo not shown) | 32 |

---

experiment: Unidirectional (A→B) permeability across Caco-2 cell monolayers in presence and absence of excipients; details: human, Caco-2, Apparent permeability coefficient (Papp), D-Lactose 1.0 mg/ml (control set b), mean ± SEM, n = 4
test.readout: Papp A→B (×10⁻⁶ cm/s)

| molecule | units.of.measure | numeric.readout |
| --- | --- | --- |
| CC(C)(C)NCC(O)COc1cccc2c1CC(O)C(O)C2 (stereo not shown) | ×10⁻⁶ cm/s | 0.14 |
